This listing pairs binders with measured pKd.
Target: T1, human CD122 (IL-2Rβ) (human, UniProt P14784 27-240)
T1 construct: Receptor reagent used in SPR; also called interleukin 2 receptor beta
T1 sequence (looked up): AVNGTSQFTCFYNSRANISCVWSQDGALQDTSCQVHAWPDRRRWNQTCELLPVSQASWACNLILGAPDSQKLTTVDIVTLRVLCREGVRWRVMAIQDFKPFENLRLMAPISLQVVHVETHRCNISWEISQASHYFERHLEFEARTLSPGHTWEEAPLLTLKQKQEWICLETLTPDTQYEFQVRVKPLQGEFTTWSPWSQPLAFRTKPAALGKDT
Assay: SPR; 1:1 binding fit
The scale used: pKd is minus the common logarithm of the concentration in molar units.

binder	pKd
MDNA209(3)-Fc (Fc fusion, MDNA209(3) (L18R, Q22E, L80F, R81D, L85V, I86V, I92F, Q126T) fused to Fc, made in CHO; not shown: linker (if any) and Fc region) APTSSSTKKTQLQLEHLRLDLEMILNGINNYKNPKLTRMLTFKFYMPKKATELKHLQCLEEELKPLEEVLNLAQSKNFHFDPRDVVSNINVFVLELKGSETTFMCEYADETATIVEFLNRWITFCTSIISTLT	8.49
MDNA209FEAA (free) (ligand) APTSSSTKKTQLQLEHLRLDLEMILNGINNYKNPKLTRMLTAKFYMPKKATELKHLQCLEEALKPLEEVLNLAQSKNFHFDPRDVVSNINVFVLELKGSETTFMCEYADETATIVEFLNRWITFCTSIIRTLT	8.80
MDNA209(3)FA-Fc (Fc fusion, MDNA209(3) plus F42A fused to Fc, made in CHO; not shown: linker (if any) and Fc region) APTSSSTKKTQLQLEHLRLDLEMILNGINNYKNPKLTRMLTAKFYMPKKATELKHLQCLEEELKPLEEVLNLAQSKNFHFDPRDVVSNINVFVLELKGSETTFMCEYADETATIVEFLNRWITFCTSIISTLT	8.42

Continue with the next binder.
Exam item: Recall and state the measured pKd for MDNA209 (free) (ligand) APTSSSTKKTQLQLEHLRLDLEMILNGINNYKNPKLTRMLTFKFYMPKKATELKHLQCLEEELKPLEEVLNLAQSKNFHFDPRDVVSNINVFVLELKGSETTFMCEYADETATIVEFLNRWITFCTSIIRTLT .
Marked response: 9.27
